# test.summary: Pharmacokinetics in monkeys after SC and IV administration
# study.conditions: monkey, in vivo; monkeys, SC 1 mg/kg; read-out: Cmax
Where a SMILES comes first, the peptide text is derived from it. [ ]: non-standard residue; d: D form. Arg(Me) = CNC(=N)NCCC[C@H](N)C(=O)O; Hyp = O=C(O)[C@@H]1C[C@@H](O)CN1; azaGly = NNC(=O)O
observed.property: Cmax (ng/mL)
Give just the numeric value; ng/mL need not be written.

Lab book: Cmax of CC(=O)O.CNC(=N)NCCC[C@H](NC(=O)[C@H](CC(C)C)NC(=O)NNC(=O)[C@H](Cc1ccccc1)NC(=O)[C@@H](NC(=O)[C@H](CC(N)=O)NC(=O)[C@@H]1C[C@@H](O)CN1C(=O)[C@@H](Cc1ccc(O)cc1)NC(C)=O)[C@@H](C)O)C(=O)N[C@@H](Cc1c[nH]c2ccccc12)C(N)=O [API-MA] (Ac-[dY][Hyp]NTF[azaGly]L[Arg(Me)]W-NH2) noted as 1320

Recorded values, source patent US11013780B2.
